experiment: Pharmacokinetics of omacetaxine in orthotopic glioblastoma PDX and naïve NOD/SCID mice (LC-MS/MS of plasma, brain, liver)
Type: in vivo, mouse
conditions: female, NOD/SCID, mouse, brain tumor, sc, 1.5 mg/kg, GS607-PDX, 60 min, single s.c. dose 1.5 mg/kg; read-out: measured brain tumor concentration expressed
reportedEndpoint: concentration at 60 min (nM)
# unit: nM | format: bare number

// sample COC(=O)C[C@](O)(CCCC(C)(C)O)C(=O)O[C@@H]1C(OC)=C[C@]23CCCN2CCc2cc4c(cc2[C@H]13)OCO4 [OMA, Omacetaxine mepesuccinate] , its concentration at 60 min was 37.9

###

experiment: Pharmacokinetics of omacetaxine in orthotopic glioblastoma PDX and naïve NOD/SCID mice (LC-MS/MS of plasma, brain, liver)
Type: in vivo, mouse
conditions: female, NOD/SCID, mouse, plasma, sc, 1.5 mg/kg, GBM8 PDX, 60 min, single s.c. dose 1.5 mg/kg, n = 6; read-out: [Plasma] ± SD
reportedEndpoint: concentration at 60 min
Just so you know, I need the unit written after the number.

// sample COC(=O)C[C@](O)(CCCC(C)(C)O)C(=O)O[C@@H]1C(OC)=C[C@]23CCCN2CCc2cc4c(cc2[C@H]13)OCO4 [OMA, Omacetaxine mepesuccinate] , its concentration at 60 min was 391 ng/mL
